# measurement description: caspase-8 TRAIL sensitization, hit retest, confirmation, cell-based, NB7+caspase-8, with/without TRAIL, luminescence panel (AID 651596)
# test context: NB7 neuroblastoma + caspase-8, without TRAIL, luminescence viability, without TRAIL, mean of runs, at 10 µM
experimental endpoint: activity (%)

1. O=c1[nH]c(=S)[nH]c2c1C(c1ccc(Cl)c(Cl)c1)OC(CCc1ccccc1)C2 (stereo unspecified) :: 37.3
2. COc1ccc(Oc2c(Cl)cnn(-c3ccccc3)c2=O)cc1 :: 94.4
3. CCCCOc1ccc(-c2nc(=S)[nH][nH]2)cc1 :: 66.6
4. CCc1ccc(C(=O)Cn2ccsc2=N)cc1 :: 66.6
5. C/C(=N\NC(=O)c1ccc2ccccc2c1)c1cccs1 :: 67.2
6. Cc1ccc(C2CC2c2n[nH]c(=S)n2-c2ccc(Cl)cc2)cc1 (stereo unspecified) :: 45.3
7. COc1ccc(NC(=O)c2cccc3c2C(=O)c2ccc(-c4ccc(F)cc4OCc4ccccc4)cc2S3(=O)=O)cc1 :: 31.4
8. COc1cccc(C(=O)Nc2ccc(N3CCCC3)cc2)c1 :: 54
9. COc1ccc(-c2cc(C(=O)N/N=C/c3cccnc3)c3ccccc3n2)cc1 :: 40.8
10. O=C(Nc1ccccc1)NN(C(=O)CCl)c1ccccc1 :: 98.3
11. COc1cccc(N2CCN(c3ncnc4c3cnn4-c3ccc(C)cc3C)CC2)c1 :: 96
